Provide the recorded Serum Shift (approximate) for the entries that follow.
biological target: HIF-2α (Homo sapiens, UniProt Q99814); experiment: HIF-2α Luciferase Reporter Assay (serum), HRE-luciferase 786-0 cells in 100% human serum; format: cell-based; conditions: ratio of IC50 in 100% serum to IC50 in serum free conditions; approximate
Sequence (Q99814 whole entry): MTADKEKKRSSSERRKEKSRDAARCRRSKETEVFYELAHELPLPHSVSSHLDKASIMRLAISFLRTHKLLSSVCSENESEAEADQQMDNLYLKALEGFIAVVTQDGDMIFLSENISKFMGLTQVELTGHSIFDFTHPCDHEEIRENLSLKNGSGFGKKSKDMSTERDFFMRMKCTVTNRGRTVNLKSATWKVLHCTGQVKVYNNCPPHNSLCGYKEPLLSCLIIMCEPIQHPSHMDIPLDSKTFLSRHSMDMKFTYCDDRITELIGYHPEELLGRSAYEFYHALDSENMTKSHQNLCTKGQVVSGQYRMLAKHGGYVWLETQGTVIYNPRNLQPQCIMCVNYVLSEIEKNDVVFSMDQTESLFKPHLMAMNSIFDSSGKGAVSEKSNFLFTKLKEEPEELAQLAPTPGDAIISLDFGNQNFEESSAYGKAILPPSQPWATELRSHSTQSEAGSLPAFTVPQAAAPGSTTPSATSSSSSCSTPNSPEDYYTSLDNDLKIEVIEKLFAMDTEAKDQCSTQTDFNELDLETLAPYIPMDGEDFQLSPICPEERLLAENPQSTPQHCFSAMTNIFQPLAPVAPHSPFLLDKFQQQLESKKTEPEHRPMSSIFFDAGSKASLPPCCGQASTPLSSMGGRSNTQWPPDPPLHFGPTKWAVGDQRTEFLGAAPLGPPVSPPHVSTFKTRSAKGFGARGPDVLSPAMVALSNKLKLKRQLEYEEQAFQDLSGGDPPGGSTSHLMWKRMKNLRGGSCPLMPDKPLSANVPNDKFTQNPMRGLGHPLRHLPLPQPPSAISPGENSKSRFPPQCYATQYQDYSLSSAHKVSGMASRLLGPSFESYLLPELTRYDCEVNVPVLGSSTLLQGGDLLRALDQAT

The measured Serum Shift (approximate) associated with O[C@H]1c2c(C(F)(F)F)nn([C@H]3CCO[C@@H](C(F)(F)F)C3)c2CC1(F)F (single isomer, unassigned) [94/95 DIAST-1] reads 17

The measured Serum Shift (approximate) associated with O[C@H]1c2c(C(F)(F)F)nn([C@H]3CC[C@H](F)[C@H](F)C3)c2[C@@H](F)[C@H]1F (single isomer, unassigned) [141/142 DIAST-2] reads 3

The measured Serum Shift (approximate) associated with O[C@H]1c2c(C(F)(F)F)nn([C@@H]3CCC[C@H](C(F)(F)F)C3)c2CC1(F)F [Example 82] reads 23

---

target: HIF-2α (Homo sapiens, UniProt Q99814); assay: HIF-2α Luciferase Reporter Assay (serum), HRE-luciferase 786-0 cells in 100% human serum; format: cell-based; conditions: ratio of IC50 in 100% serum to IC50 in serum free conditions; approximate
Assay Metric: Serum Shift (approximate)
Form rule: numeric answer, no unit written next to it.

The measured Serum Shift (approximate) associated with [O-][S+](CCn1nc(C(F)(F)F)c2c1CCC(F)(F)[C@H]2O)C(F)F (some centres unmarked) reads 4

The measured Serum Shift (approximate) associated with `O[C@H]1c2c(C(F)(F)F)nn(CCCC(F)F)c2CCC1(F)F` reads 7

The measured Serum Shift (approximate) associated with O[C@H]1c2c(C(F)(F)F)nn([C@H]3C[C@@H]4[C@H](C3)C4(F)F)c2CC1(F)F (single isomer, unassigned) [125/126 DIAST-1] reads 9

The measured Serum Shift (approximate) associated with O[C@H]1c2c(C(F)(F)F)nn([C@@H]3CC[C@@H](F)C[C@H]3F)c2CC1(F)F (single isomer, unassigned) [97/98 DIAST-1] reads 23

The measured Serum Shift (approximate) associated with `CS(=O)(=O)CCn1nc(C(F)(F)F)c2c1CCC(F)(F)[C@H]2O` reads 6

The measured Serum Shift (approximate) associated with O[C@@H]1c2c(C(F)(F)F)nn([C@H]3CC[C@H](F)[C@H](F)C3)c2[C@H](F)C1(F)F (single isomer, unassigned) reads 9

The measured Serum Shift (approximate) associated with OC(CCn1nc(C(F)(F)F)c2c1CCC(F)(F)[C@H]2O)C(F)(F)F (some centres unmarked) reads 22

---

target: HIF-2α (Homo sapiens, UniProt Q99814); experiment: HIF-2α Luciferase Reporter Assay (serum), HRE-luciferase 786-0 cells in 100% human serum; format: cell-based; details: 100% human serum, 786-0 reporter cells, overnight incubation; read-out: Serum Potency
Assay Metric: IC50

// returns IC50 for O[C@H]1c2c(C(F)(F)F)nn(CCC3CC3(F)F)c2[C@@H](F)[C@H]1F (stereo partly shown) with HIF-2α (Homo sapiens, UniProt Q99814); value = 100 to 1000 nM

// returns IC50 for `O=S(=O)(CCn1nc(C(F)(F)F)c2c1CCC(F)(F)[C@H]2O)C(F)(F)F` with HIF-2α (Homo sapiens, UniProt Q99814); value = 100 to 1000 nM

// returns IC50 for O[C@H]1c2c(C(F)(F)F)nn(CC3CC3(F)F)c2CCC1(F)F (single isomer, unassigned) [23/24 DIAST-1] with HIF-2α (Homo sapiens, UniProt Q99814); value = > 1000 nM

// returns IC50 for `O[C@H]1c2c(C(F)(F)F)nn([C@@H]3CCC(F)(F)[C@@H](F)C3)c2CC1(F)F` with HIF-2α (Homo sapiens, UniProt Q99814); value = > 1000 nM

Every entry's value here was drawn from patent US12071411B2.
